assay: cAMP Responsive Elements (CRE) small molecule agonists, cell-based qHTS assay (AID 1963590); conditions: CRE-bla HEK293T, beta-lactamase FRET ratio, 3 h; series mostly up to 92.4 µM
Results filed as inconclusive are left out. Calls of active or inactive are those of the source. Calls come from the whole dose curve.
Property name: activation

In: Any idea what its activation is? The compound is CN(C)C1CSSSC1
Out: inactive

In: Any idea what its activation is? The compound is CCS(=O)(=O)c1cccnc1S(=O)(=O)NC(=O)Nc1nc(OC)cc(OC)n1
Out: inactive

In: Any idea what its activation is? The compound is CC(C)=CC1C(C(=O)OCc2coc(Cc3ccccc3)c2)C1(C)C (stereo not given)
Out: inactive

In: Any idea what its activation is? The compound is CN1C[C@H](CNC(=O)OCc2ccccc2)C[C@@H]2c3cccc4c3c(cn4C)C[C@H]21
Out: inactive

In: Any idea what its activation is? The compound is CC1(C)C(C(=O)OC(C#N)c2cccc(Oc3ccccc3)c2)C1(C)C (stereo not given)
Out: inactive

In: Any idea what its activation is? The compound is O=C(CCCCl)c1ccc(F)cc1
Out: inactive

In: Any idea what its activation is? The compound is O=C1Nc2ccc(Cl)cc2C(c2ccccc2)=NC1O (stereo not given)
Out: inactive

In: Any idea what its activation is? The compound is CCCCCCBr
Out: inactive

In: Any idea what its activation is? The compound is O=C(O)C(O)C(O)C(=O)O (stereo not given)
Out: inactive

---
In: Any idea what its activation is? The compound is Oc1ccc([C@H]2CNCc3c2ccc(O)c3O)cc1O
Out: inactive

###

Test: G protein-coupled receptor (GPCR) small molecule agonists, calcium flux assay: HEK293 wild type cell line counter screen (AID 1920065)
Conditions: HEK293 WT calcium flux, fluorescence, agonist mode; series mostly up to 57.6 µM
Excerpt: U.S. Tox21 Program National Center for Advancing Translational Sciences [NCATS] Division of Preclinical Innovation [DPI] U.S. Environmental Protection Agency [EPA] National Institutes of Environmental Health Sciences [NIEHS] National Toxicology Program [NTP] U.S. Food and Drug Administration [FDA] […] Fluorescence intensity can be utilized to determine the activation of the compound in a calcium flux assay. […]
Activity calls are given as the source filed them. The call rests on the fitted dose curve.
Property name: activation

In: Any idea what its activation is? The compound is N#Cc1c[nH]cc1-c1cccc2c1OC(F)(F)O2
Out: inactive

In: Any idea what its activation is? The compound is O=C(NC(=O)c1c(F)cccc1F)Nc1ccc(Oc2ccc(C(F)(F)F)cc2Cl)cc1F
Out: inactive

In: Any idea what its activation is? The compound is CCN(CC)C(=O)[C@@H]1C=C2c3cccc4[nH]cc(c34)C[C@H]2N(C)C1
Out: inactive

In: Any idea what its activation is? The compound is [O-][Br+2]([O-])O
Out: inactive

In: Any idea what its activation is? The compound is CC(C)CCCCCCCOC(=O)c1ccccc1C(=O)OCCCCCCCC(C)C
Out: inactive

Look at each compound and report its activation.
1. Cc1ccc2cc3c(ccc4ccccc43)c3c2c1CC3
2. II
3. O=c1ssc(Cl)c1Cl
4. O=C(CBr)c1ccccc1
5. Nc1c(Cl)c(F)nc(OCC(=O)O)c1Cl
6. Cc1cc(C(F)(C(F)(F)F)C(F)(F)F)ccc1NC(=O)c1cccc(I)c1C(=O)NC(C)(C)CS(C)(=O)=O
7. COC(=O)COc1ccc(Cl)cc1Cl
8. CC(=O)C(Cl)(Cl)Cl

Out:
1. inactive
2. inactive
3. inactive
4. inactive
5. inactive
6. inactive
7. inactive
8. inactive
